Target under test: T1, mouse ROR1-Fc fusion protein (mouse)
T1 construct: Whole entry 'mouse ROR1-Fc (CHO)'; also called mROR1
T1 sequence (chain, as listed by the source limits assumed): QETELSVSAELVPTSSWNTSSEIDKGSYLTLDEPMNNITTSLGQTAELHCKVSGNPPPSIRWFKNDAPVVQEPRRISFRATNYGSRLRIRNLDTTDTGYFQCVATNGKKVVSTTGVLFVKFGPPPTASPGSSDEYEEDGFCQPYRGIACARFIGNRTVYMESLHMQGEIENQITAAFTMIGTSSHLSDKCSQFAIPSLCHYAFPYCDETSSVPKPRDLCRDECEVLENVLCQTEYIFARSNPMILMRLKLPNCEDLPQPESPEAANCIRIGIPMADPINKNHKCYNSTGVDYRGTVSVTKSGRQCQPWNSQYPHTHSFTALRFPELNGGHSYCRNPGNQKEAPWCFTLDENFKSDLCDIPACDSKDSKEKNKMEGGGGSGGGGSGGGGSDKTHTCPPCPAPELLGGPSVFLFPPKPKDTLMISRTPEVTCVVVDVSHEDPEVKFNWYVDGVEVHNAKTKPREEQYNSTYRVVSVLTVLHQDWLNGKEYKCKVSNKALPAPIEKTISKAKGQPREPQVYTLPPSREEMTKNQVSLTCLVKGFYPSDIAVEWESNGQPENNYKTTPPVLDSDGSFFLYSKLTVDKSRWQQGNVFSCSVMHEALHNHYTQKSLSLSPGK
Experiment notes: SPR, mouse ROR1 on chip
Recorded Kd for the following binders
Give just the numeric value; nM need not be written.

Consider the reported Kd for these binders:
Binder	Kd (nM)
CPF7 his myc (VNAR, VNAR) VNAR: TRVDQTPRTATKETGESLTINCVVTGAKYGLFATYWYRKNPGSSNQERISISGRYVESVNKRTMSFSLRIKDLTVADSATYYCKAVFMPQHWHPAAHWYDGAGTVLTVNQ	19.1
P3A1 his myc (VNAR, VNAR; also called P3A1 6xHis myc) VNAR: TRVDQTPRTATKETGESLTINCVLTDTSYGLYSTSWFRKNPGTTDWERMSIGGRYVESVNKGAKSFSLRIKDLTVADSATYYCKAREARHPWLRQWYDGAGTVLTVNQ	14.3
P3A1-[G4S]5-P3A1 his myc (VNAR, VNAR homodimer by genetic fusion; also called P3A1-P3A1; P3A1 dimer) TRVDQTPRTATKETGESLTINCVLTDTSYGLYSTSWFRKNPGTTDWERMSIGGRYVESVNKGAKSFSLRIKDLTVADSATYYCKAREARHPWLRQWYDGAGTVLTVNGGGGSGGGGSGGGGSGGGGSGGGGSTRVDQTPRTATKETGESLTINCVLTDTSYGLYSTSWFRKNPGTTDWERMSIGGRYVESVNKGAKSFSLRIKDLTVADSATYYCKAREARHPWLRQWYDGAGTVLTVNQASGAHHHHHHGAEFEQKLISEEDL	0.396

Could you now consider this next binder?
// field: Kd; key: E7 his myc (VNAR, VNAR) VNAR: TRVDQTPRTATKETGESLTINCVVTGAKYGLAATYWYRKNPGSSNQERISISGRYVESVNKRTMSFSLRIKDLTVADSATYYCKAYPWAMWGQWYDGAGTVLTVNQ ; value = 1.4
